System: RARa homodimer (NR concentration 270 nM)
methodSummary: PBM binding z-score (relative to random genomic background probes); higher = stronger binding; sequences stand for … in GC…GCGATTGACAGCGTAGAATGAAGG
// values below are reported PBM binding z-score

Previously resolved entries follow.
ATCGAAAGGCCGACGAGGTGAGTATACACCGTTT    -0.372
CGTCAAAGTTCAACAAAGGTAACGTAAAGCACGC    1.53
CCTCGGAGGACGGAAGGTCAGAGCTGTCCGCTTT    -0.121

Req: Can you share its PBM binding z-score? I mean this sequence: "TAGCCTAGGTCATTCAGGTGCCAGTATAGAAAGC"
Resp: -0.175

Req: Give its PBM binding z-score value. Item: "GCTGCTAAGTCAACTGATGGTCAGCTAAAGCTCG"
Resp: -1.24

Req: I would be grateful if you could share the reported PBM binding z-score for "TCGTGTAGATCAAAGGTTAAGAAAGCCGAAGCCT" .
Resp: 0.495
